Biological target: KRAS^G12D(GTP)::CRAF (Homo sapiens, UniProt P01116, G12D)
Construct: KRAS^G12D 1–169, N-terminal 6His-tag, C-terminal avi-tag (Xtal BioStructures, Inc.); 6His (N); purchased Xtal BioStructures, Inc. (KRAS); Viva Biotech Ltd. (CRAF)
Sequence (P01116 1-169 isoform P01116-2 G12D): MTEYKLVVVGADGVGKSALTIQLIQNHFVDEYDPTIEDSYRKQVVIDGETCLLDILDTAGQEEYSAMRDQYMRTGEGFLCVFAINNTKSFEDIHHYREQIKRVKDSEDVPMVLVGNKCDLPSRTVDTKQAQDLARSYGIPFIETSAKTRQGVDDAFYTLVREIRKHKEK
Assay: KRAS^G12D(GTP)::CRAF AlphaScreen
Type: biochemical
Conditions: Batch 1; read-out: KRAS^G12D(GTP)::CRAF AlphaScreen IC50
endpoint: IC50 (µM)

| molecule | unit-info | rel | value |
| --- | --- | --- | --- |
| Clc1ccc2[nH]c3c(c2c1)CNCC3 | µM | > | 100 |
| c1ccc2c(Cc3nc4ccncc4[nH]3)c[nH]c2c1 | µM | > | 100 |
| [Cl][Pd][Cl] [PdCl2, Palladium(II) chloride] | µM | = | 0.7 |
| O=C1NCCc2c1[nH]c1c(-c3ccncc3)cccc21 | µM | = | 8.6 |
| O=C1NCCc2c1[nH]c1c(-c3ccoc3)cccc21 | µM | = | 11 |

---

Below are IC50 values measured for WRN (ext.) (Homo sapiens, UniProt Q14191).
endpoint: IC50

| compound | value |
| --- | --- |
| [Cl][Cu][Cl] [CuCl2, Copper(II) chloride] | 1 to 10 µM |
| [Cl][Sn][Cl] [SnCl2, Tin(II) chloride] | > 10 µM |
| [Cl-].[Cl-].[Mg+2] [MgCl2, Magnesium chloride] | > 10 µM |
| O=[N+]([O-])[O-].O=[N+]([O-])[O-].O=[N+]([O-])[O-].[Al+3] [Al(NO3)3, Aluminum nitrate] | > 10 µM |
| [Cl][Fe][Cl] [FeCl2, Iron(II) chloride] | > 10 µM |

---

pIC50: −log10 of the molar value.
Below are pIC50 values measured for NSD3 (Homo sapiens).
endpoint: pIC50

| compound | value |
| --- | --- |
| O=[N+]([O-])[O-].O=[N+]([O-])[O-].O=[N+]([O-])[O-].[Al+3] [Al(NO3)3, Aluminum nitrate] | < 5.00 |
| CC(=O)[O-].[Ag+] [Ag (CH 3COO), Silver acetate] | 5.00 to 6.00 |
| [Cl][Fe]([Cl])[Cl] [FeCl3, Iron(III) chloride] | < 5.00 |
| [Cl][Sn][Cl] [SnCl2, Tin(II) chloride] | > 6.00 |
| [Cl-].[Cl-].[Zn+2] [ZnCl2, Zinc(II) chloride] | < 5.00 |
| [Cl][Ni][Cl] [NiCl2, Nickel(II) chloride] | < 5.00 |
| [Cl][Fe][Cl] [FeCl2, Iron(II) chloride] | < 5.00 |
| [Cl][Mn][Cl] [MnCl2, Manganese(II) chloride] | < 5.00 |
| [Cl-].[Cl-].[Co+2] [CoCl2, Cobalt(II) chloride] | < 5.00 |
| [Cl][Au]([Cl])[Cl] [AuCl3, Gold(III) chloride] | > 6.00 |
| [Cl][Pd][Cl] [PdCl2, Palladium(II) chloride] | < 5.00 |
| [Cl-].[Cl-].[Mg+2] [MgCl2, Magnesium chloride] | < 5.00 |
| [Cl][Cu][Cl] [CuCl2, Copper(II) chloride] | < 5.00 |
